Experiment: BSK_LPS_PGE2: BioMAP Diversity Plus: LPS Assay for Prostaglandin E2 (PGE2) Biomarker Activity (AID 2283082)
Conditions: primary human HUVEC with PBMC; actives raise or lower the signal
Activity calls are given as the source filed them. The calls were made as follows: active = hit-call score of the fitted dose curve at least 0.9, where 1 is the maximum; inactive = score below 0.9.
Respond only with the outcome that fits, drawn from active, inactive

Hi, sorry to bother you, what did the test record for Nc1ccc2c(c1)C(=O)c1ccccc1C2=O ?
active

Hi, sorry to bother you, what did the test record for CCOc1ccc2c(c1)C(C)=CC(C)(C)N2 ?
active

Hi, sorry to bother you, what did the test record for O=C(OCCCCCOC(=O)c1ccccc1)c1ccccc1 ?
inactive

Hi, sorry to bother you, what did the test record for CCCCC(CC)COC(=O)CC(C(=O)OCC(CC)CCCC)S(=O)(=O)O (stereo not given) ?
inactive

Hi, sorry to bother you, what did the test record for COc1ccc(C)cc1N ?
inactive

Ref: PubChem BioAssay (EPA / NIEHS)
